Experiment: Hemolytic activity in human RBC at 100 uM measured after 1 hr by UV-vis absorbance method relative to control
Assay type: ADME, cell-based, Erythrocyte
Details: red blood cells (RBC), read-out: Activity
hemolysis at 1 h, 100 µM strictly under 6% means 1 (yes); at 6% or over means 0 (no).

compound_structure=O=C(OCc1cn(-c2cccc(Cl)c2)nn1)c1cn(C2CC2)c2cc(N3CCN(Cc4cn(-c5cccc(Cl)c5)nn4)CC3)c(F)cc2c1=O discrete_label="0 (no)"
compound_structure=O=C(OCc1cn(-c2ccc(Cl)cc2Cl)nn1)c1cn(C2CC2)c2cc(N3CCN(Cc4cn(-c5ccc(Cl)cc5Cl)nn4)CC3)c(F)cc2c1=O discrete_label="0 (no)"
compound_structure=CCCCCc1ccc(-n2cc(COC(=O)c3cn(C4CC4)c4cc(N5CCN(Cc6cn(-c7ccc(CCCCC)cc7)nn6)CC5)c(F)cc4c3=O)nn2)cc1 discrete_label="1 (yes)"
compound_structure=O=C(OCc1cn(-c2ccc([N+](=O)[O-])cc2)nn1)c1cn(C2CC2)c2cc(N3CCN(Cc4cn(-c5ccc([N+](=O)[O-])cc5)nn4)CC3)c(F)cc2c1=O discrete_label="1 (yes)"
